Target or system Peroxisome proliferator-activated receptor gamma (Homo sapiens, UniProt P37231); recorded quantity Ki.
API: value field is a number in nM; no unit string.

CCCCCC(=O)N(C)CCOc1ccc(CC2SC(=O)NC2=O)cc1 (stereo not given) = 180
CC/C=C/C(=O)N(C)CCOc1ccc(CC2SC(=O)NC2=O)cc1 (stereo not given) = 1200
CCCCCCCCC(=O)NCCOc1ccc(CC2SC(=O)NC2=O)cc1 (stereo not given) = 270
C/C=C/CC(=O)N(C)CCOc1ccc(CC2SC(=O)NC2=O)cc1 (stereo not given) = 1200
CCCCC/C=C/C/C=C\C/C=C\C/C=C\CCCC(=O)O = 1500
C=CCC/C=C/C(=O)NCCOc1ccc(CC2SC(=O)NC2=O)cc1 (stereo not given) = 6800
CCCCCCCCC(=O)N(C)CCOc1ccc(CC2SC(=O)NC2=O)cc1 (stereo not given) = 18
CCCCCCC(=O)NCCOc1ccc(CC2SC(=O)NC2=O)cc1 (stereo not given) = 1400

Requested read-out Ki, target or system Peroxisome proliferator-activated receptor gamma (Homo sapiens, UniProt P37231), entry CCCCC(=O)N(C)CCOc1ccc(CC2SC(=O)NC2=O)cc1 (stereo not given)
1100

* * *

biological target: Peroxisome proliferator-activated receptor gamma (Homo sapiens); assay: Binding affinity was determined by displacement of 20 nM [3H]- thiazolidinedione from 4 nM biotinylated human Peroxisome proliferator activated receptor gamma (PPAR gamma) ligand binding domain
Sequence (P37231 whole entry, the tested form may be a part): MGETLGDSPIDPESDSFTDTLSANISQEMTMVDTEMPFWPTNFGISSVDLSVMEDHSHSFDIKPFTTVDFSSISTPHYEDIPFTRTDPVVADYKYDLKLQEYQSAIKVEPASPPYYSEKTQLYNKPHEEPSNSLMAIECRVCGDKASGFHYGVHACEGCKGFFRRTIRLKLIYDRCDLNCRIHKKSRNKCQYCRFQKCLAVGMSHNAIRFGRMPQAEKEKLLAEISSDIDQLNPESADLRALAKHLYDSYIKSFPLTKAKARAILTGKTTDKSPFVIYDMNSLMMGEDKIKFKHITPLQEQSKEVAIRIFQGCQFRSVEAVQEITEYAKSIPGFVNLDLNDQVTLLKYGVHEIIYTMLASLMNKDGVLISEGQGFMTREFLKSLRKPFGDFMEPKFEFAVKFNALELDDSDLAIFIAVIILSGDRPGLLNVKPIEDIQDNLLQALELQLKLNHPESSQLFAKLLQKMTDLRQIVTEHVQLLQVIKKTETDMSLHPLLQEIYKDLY
MEASURED PROPERTY: Ki
Please answer in the form of a number followed by its unit of measurement.

Any idea what its Ki is? The compound is CCCCCC(=O)NCCOc1ccc(CC2SC(=O)NC2=O)cc1 (stereo unspecified)
10 µM

* * *

molecular target: Peroxisome proliferator-activated receptor gamma (Homo sapiens)
# strict inequality: Ki < 50 nM yields true (1), everything else yields false (0)

Record excerpt, results attached:
CCCCC(=O)NCCOc1ccc(CC2SC(=O)NC2=O)cc1 (stereo unspecified) = false (0)
C=CCCC(=O)NCCOc1ccc(CC2SC(=O)NC2=O)cc1 (stereo unspecified) = false (0)
C/C=C/CC(=O)NCCOc1ccc(CC2SC(=O)NC2=O)cc1 (stereo unspecified) = false (0)
CCCCCCCCCC(=O)NCCOc1ccc(CC2SC(=O)NC2=O)cc1 (stereo unspecified) = false (0)
CCCCCCCCCC(=O)N(C)CCOc1ccc(CC2SC(=O)NC2=O)cc1 (stereo unspecified) = true (1)

Attention now turns to another entry.
Check if Ki falls below 50 nM for CCCCCCCC(=O)NCCOc1ccc(CC2SC(=O)NC2=O)cc1 (stereo unspecified) .
false (0)

* * *

Target or system Peroxisome proliferator-activated receptor gamma (Homo sapiens); recorded quantity Ki.

Worked examples follow.
CCCCCCC(=O)N(C)CCOc1ccc(CC2SC(=O)NC2=O)cc1 (stereo not given) = 61 nM
CCCCCCCC(=O)N(C)CCOc1ccc(CC2SC(=O)NC2=O)cc1 (stereo not given) = 48 nM
C=CCCC(=O)N(C)CCOc1ccc(CC2SC(=O)NC2=O)cc1 (stereo not given) = 600 nM

Requested read-out Ki, target or system Peroxisome proliferator-activated receptor gamma (Homo sapiens), entry CC/C=C/C(=O)NCCOc1ccc(CC2SC(=O)NC2=O)cc1 (stereo not given)
> 10000 nM

Requested read-out Ki, target or system Peroxisome proliferator-activated receptor gamma (Homo sapiens), entry C=CCC/C=C/C(=O)N(C)CCOc1ccc(CC2SC(=O)NC2=O)cc1 (stereo not given)
18 nM
